Test system: ATP;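 also: ATP exposure 15 min at 22 °C before imaging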
Assay: switch fluorescence ratio, 500 uM ATP over buffer (Cy3 cluster intensity, sum of 5 cycles each) (fold (ratio)); higher = stronger signal-on switching upon ATP binding; sequences stand for … in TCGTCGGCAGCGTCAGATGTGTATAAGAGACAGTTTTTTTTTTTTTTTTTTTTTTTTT…TC
Settings: aptamer strand: ATP DNA aptamer (quencher-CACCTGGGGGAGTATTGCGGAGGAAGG + anchor), 100 nM annealed; ATP concentration: 500 uM
// switch fluorescence ratio lookup, one value per entry
# print the numeric value only

In: What does the record list as switch fluorescence ratio for AGCTGGGAAG ?
Out: 0.982

In: What does the record list as switch fluorescence ratio for TCACCTTGTT ?
Out: 1.03

In: What does the record list as switch fluorescence ratio for TGAGATAGAT ?
Out: 1

New cases:
In: What does the record list as switch fluorescence ratio for TCGCTTGGGA ?
Out: 1.03

In: What does the record list as switch fluorescence ratio for GGCCTATTGG ?
Out: 0.998

In: What does the record list as switch fluorescence ratio for ATTTCCGCAG ?
Out: 3.82

In: What does the record list as switch fluorescence ratio for GCTTAAGGCG ?
Out: 0.991

In: What does the record list as switch fluorescence ratio for CAAGAGTGC ?
Out: 1.02

In: What does the record list as switch fluorescence ratio for GGCTATTTAA ?
Out: 1

---

Tested on: ATP;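 also: ATP exposure 15 min at 22 °C before imaging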
Assay: switch fluorescence ratio, 500 uM ATP over buffer (Cy3 cluster intensity, sum of 5 cycles each) (fold (ratio)); higher = stronger signal-on switching upon ATP binding; sequences stand for … in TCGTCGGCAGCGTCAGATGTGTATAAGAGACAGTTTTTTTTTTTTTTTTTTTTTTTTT…TC
Settings: aptamer strand: ATP DNA aptamer (quencher-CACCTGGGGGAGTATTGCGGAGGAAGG + anchor), 100 nM annealed; ATP concentration: 500 uM
// switch fluorescence ratio lookup, one value per entry
# print the numeric value only

Reference set (5 entries):
In: What does the record list as switch fluorescence ratio for GGGTGGGTAG ?
Out: 0.955

In: What does the record list as switch fluorescence ratio for TTCCGGATTA ?
Out: 1.07

In: What does the record list as switch fluorescence ratio for AAAAATTTTT ?
Out: 0.995

In: What does the record list as switch fluorescence ratio for AATTAAGGTT ?
Out: 1.04

In: What does the record list as switch fluorescence ratio for AATACAGAGA ?
Out: 1.01

New cases:
In: What does the record list as switch fluorescence ratio for TTGGGGGTGG ?
Out: 1.01

In: What does the record list as switch fluorescence ratio for TTATTCGGTT ?
Out: 0.982

In: What does the record list as switch fluorescence ratio for ACATTTAGGC ?
Out: 1.05

In: What does the record list as switch fluorescence ratio for ATAGTATTAT ?
Out: 0.968

In: What does the record list as switch fluorescence ratio for GGGGGAGAAA ?
Out: 1.02

In: What does the record list as switch fluorescence ratio for GGGTGGGTCA ?
Out: 1.01

In: What does the record list as switch fluorescence ratio for ATTTCGTAGG ?
Out: 1.01

In: What does the record list as switch fluorescence ratio for TTTAATGGTT ?
Out: 1.02

In: What does the record list as switch fluorescence ratio for CGTGAGAGCA ?
Out: 1.01

---

Tested on: ATP;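 also: ATP exposure 15 min at 22 °C before imaging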
Assay: switch fluorescence ratio, 500 uM ATP over buffer (Cy3 cluster intensity, sum of 5 cycles each) (fold (ratio)); higher = stronger signal-on switching upon ATP binding; sequences stand for … in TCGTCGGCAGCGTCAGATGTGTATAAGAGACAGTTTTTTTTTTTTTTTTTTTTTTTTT…TC
Conditions: aptamer strand: ATP DNA aptamer (quencher-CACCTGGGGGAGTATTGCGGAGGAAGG + anchor), 100 nM annealed; ATP concentration: 500 uM
measurement-kind: switch fluorescence ratio

Reference set (6 entries):
In: # value lookup — system ATP, readout switch fluorescence ratio, item GGTGTCTCCC;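 also: ATP exposure 15 min at 22 °C before imaging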
Out: 1

In: # value lookup — system ATP, readout switch fluorescence ratio, item GGTTGACGAG;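 also: ATP exposure 15 min at 22 °C before imaging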
Out: 0.986

In: # value lookup — system ATP, readout switch fluorescence ratio, item ATGATAGGGA;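 also: ATP exposure 15 min at 22 °C before imaging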
Out: 1.01

In: # value lookup — system ATP, readout switch fluorescence ratio, item ATGCCCGTCG;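 also: ATP exposure 15 min at 22 °C before imaging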
Out: 1.06

In: # value lookup — system ATP, readout switch fluorescence ratio, item ACCCGGCACA;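 also: ATP exposure 15 min at 22 °C before imaging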
Out: 1.21

In: # value lookup — system ATP, readout switch fluorescence ratio, item ATGGCCGGTG;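 also: ATP exposure 15 min at 22 °C before imaging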
Out: 1.01

New cases:
In: # value lookup — system ATP, readout switch fluorescence ratio, item TCAGTTGTAC;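 also: ATP exposure 15 min at 22 °C before imaging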
Out: 1.08

In: # value lookup — system ATP, readout switch fluorescence ratio, item TCACGATTGG;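 also: ATP exposure 15 min at 22 °C before imaging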
Out: 1.02

In: # value lookup — system ATP, readout switch fluorescence ratio, item GGTTCGTCTG;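 also: ATP exposure 15 min at 22 °C before imaging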
Out: 0.981

In: # value lookup — system ATP, readout switch fluorescence ratio, item TTACAAATTT;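 also: ATP exposure 15 min at 22 °C before imaging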
Out: 0.965

In: # value lookup — system ATP, readout switch fluorescence ratio, item TTAATAATTC;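 also: ATP exposure 15 min at 22 °C before imaging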
Out: 0.996

In: # value lookup — system ATP, readout switch fluorescence ratio, item TTTTAGTTTC;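 also: ATP exposure 15 min at 22 °C before imaging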
Out: 1.01

In: # value lookup — system ATP, readout switch fluorescence ratio, item TGCATGAGCG;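 also: ATP exposure 15 min at 22 °C before imaging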
Out: 1.02

---

Tested on: ATP;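 also: ATP exposure 15 min at 22 °C before imaging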
Test: switch fluorescence ratio, 500 uM ATP over buffer (Cy3 cluster intensity, sum of 5 cycles each) (fold (ratio)); higher = stronger signal-on switching upon ATP binding; sequences stand for … in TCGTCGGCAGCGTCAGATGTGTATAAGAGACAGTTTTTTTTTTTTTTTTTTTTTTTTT…TC
Conditions: aptamer strand: ATP DNA aptamer (quencher-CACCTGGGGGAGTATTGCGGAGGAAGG + anchor), 100 nM annealed; ATP concentration: 500 uM
measurement-kind: switch fluorescence ratio
# print the numeric value only

Reference set (5 entries):
In: # value lookup — system ATP, readout switch fluorescence ratio, item TTGGGGTGTC;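 also: ATP exposure 15 min at 22 °C before imaging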
Out: 1.01

In: # value lookup — system ATP, readout switch fluorescence ratio, item GTTCTAGATT;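 also: ATP exposure 15 min at 22 °C before imaging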
Out: 1.03

In: # value lookup — system ATP, readout switch fluorescence ratio, item ACGCAGGGGG;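 also: ATP exposure 15 min at 22 °C before imaging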
Out: 0.989

In: # value lookup — system ATP, readout switch fluorescence ratio, item TGGTTCAGGG;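 also: ATP exposure 15 min at 22 °C before imaging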
Out: 0.997

In: # value lookup — system ATP, readout switch fluorescence ratio, item TCCAGGAGGT;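 also: ATP exposure 15 min at 22 °C before imaging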
Out: 1.02

Now let's try a different one.
In: # value lookup — system ATP, readout switch fluorescence ratio, item CATTGACATT;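 also: ATP exposure 15 min at 22 °C before imaging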
Out: 1.06

---

System: ATP;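 also: ATP exposure 15 min at 22 °C before imaging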
Assay: switch fluorescence ratio, 500 uM ATP over buffer (Cy3 cluster intensity, sum of 5 cycles each) (fold (ratio)); higher = stronger signal-on switching upon ATP binding; sequences stand for … in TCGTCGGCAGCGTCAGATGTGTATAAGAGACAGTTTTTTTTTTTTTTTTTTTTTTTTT…TC
Details: aptamer strand: ATP DNA aptamer (quencher-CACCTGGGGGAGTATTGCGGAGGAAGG + anchor), 100 nM annealed; ATP concentration: 500 uM
// switch fluorescence ratio lookup, one value per entry
# print the numeric value only

Reference set (5 entries):
In: What does the record list as switch fluorescence ratio for GCTCCCAAGG ?
Out: 3.69

In: What does the record list as switch fluorescence ratio for AAACGGGGGT ?
Out: 0.991

In: What does the record list as switch fluorescence ratio for TTTTTGTTCC ?
Out: 1.08

In: What does the record list as switch fluorescence ratio for TTAAGGGGAA ?
Out: 1.06

In: What does the record list as switch fluorescence ratio for TAGTTTTTGT ?
Out: 1.01

New cases:
In: What does the record list as switch fluorescence ratio for CCCATTGTTT ?
Out: 1.01

In: What does the record list as switch fluorescence ratio for GGTGTTCGTG ?
Out: 0.985

In: What does the record list as switch fluorescence ratio for GCTTTTTAGG ?
Out: 0.964

In: What does the record list as switch fluorescence ratio for TCGGGTCTAC ?
Out: 1.01

In: What does the record list as switch fluorescence ratio for CTTGGTGGGG ?
Out: 0.969

In: What does the record list as switch fluorescence ratio for ATTGGTTGTG ?
Out: 0.988

In: What does the record list as switch fluorescence ratio for ATTTTTAGAC ?
Out: 1.03

In: What does the record list as switch fluorescence ratio for ACTGTCCCGT ?
Out: 1.02

In: What does the record list as switch fluorescence ratio for GGACTTGGGC ?
Out: 0.986

In: What does the record list as switch fluorescence ratio for AGGCCCCCGA ?
Out: 1.02

In: What does the record list as switch fluorescence ratio for GCCCCGGGGT ?
Out: 1.03

In: What does the record list as switch fluorescence ratio for TAAGAAAACT ?
Out: 1.36

In: What does the record list as switch fluorescence ratio for TTTTTCAGCC ?
Out: 1.01

In: What does the record list as switch fluorescence ratio for CGGGCTCCGC ?
Out: 1.21

In: What does the record list as switch fluorescence ratio for AAGGGTCGAT ?
Out: 0.968

In: What does the record list as switch fluorescence ratio for AAATCAAGTG ?
Out: 0.975

In: What does the record list as switch fluorescence ratio for TTTGATTAAT ?
Out: 0.987

In: What does the record list as switch fluorescence ratio for AATTTTAATG ?
Out: 0.997

In: What does the record list as switch fluorescence ratio for TTAATAAGCT ?
Out: 0.978

In: What does the record list as switch fluorescence ratio for TCTTTACGGT ?
Out: 1.04

In: What does the record list as switch fluorescence ratio for GGGATAGTGG ?
Out: 0.979

In: What does the record list as switch fluorescence ratio for GCGAATGATG ?
Out: 0.966

In: What does the record list as switch fluorescence ratio for AGAATCGTAT ?
Out: 1.01

In: What does the record list as switch fluorescence ratio for AAGTTGGGCC ?
Out: 0.955

In: What does the record list as switch fluorescence ratio for GGTGGAGGTT ?
Out: 1.02

In: What does the record list as switch fluorescence ratio for CTGGGGGGGT ?
Out: 0.994
